In this section we review reported log10(IC50) values for a set of compounds.
target_of_assay: UniProtKB P07550
Sequence (P07550 whole entry): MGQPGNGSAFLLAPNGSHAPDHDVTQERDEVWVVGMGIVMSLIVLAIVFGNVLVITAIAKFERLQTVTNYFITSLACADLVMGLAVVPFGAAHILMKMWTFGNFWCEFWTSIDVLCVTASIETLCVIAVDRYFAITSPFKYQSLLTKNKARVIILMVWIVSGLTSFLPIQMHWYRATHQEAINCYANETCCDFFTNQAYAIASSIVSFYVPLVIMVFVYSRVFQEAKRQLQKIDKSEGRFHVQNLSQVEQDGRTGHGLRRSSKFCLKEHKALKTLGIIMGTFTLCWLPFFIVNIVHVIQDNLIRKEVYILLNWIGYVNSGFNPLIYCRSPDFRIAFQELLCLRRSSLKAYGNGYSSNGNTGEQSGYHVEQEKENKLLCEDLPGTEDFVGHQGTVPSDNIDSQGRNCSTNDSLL
experiment_description: Binding affinity for clone human Beta-2 adrenergic receptor from CHO cell membranes in the presence of I-iodocyanopindolol
parameter_measured: log10(IC50) (log10 of the value in µM)

INSERT INTO results (molecule_smiles, parameter_measured, observed_measurement) VALUES
  ('O=S(=O)(Nc1ccc(CCNC[C@H](O)c2cccnc2)cc1)c1ccc(-n2ncc(-c3cccc(F)c3)n2)cc1', 'log10(IC50)', 0.94),
  ('O=S(=O)(Nc1ccc(CCNC[C@H](O)c2cccnc2)cc1)c1ccc(-n2ncc(Cc3c(F)cc(F)cc3F)n2)cc1', 'log10(IC50)', 0.94),
  ('O=S(=O)(Nc1ccc(CCNC[C@H](O)c2cccnc2)cc1)c1ccc(-n2ncc(Cc3ccc(F)cc3)n2)cc1', 'log10(IC50)', -0.11),
  ('O=S(=O)(Nc1ccc(CCNC[C@H](O)c2cccnc2)cc1)c1ccc(-n2ncc(COc3ccc(C(F)(F)F)cc3)n2)cc1', 'log10(IC50)', -0.14),
  ('O=S(=O)(Nc1ccc(CCNC[C@H](O)c2cccnc2)cc1)c1ccc(-n2ncc(COc3ccc(OC(F)(F)F)cc3)n2)cc1', 'log10(IC50)', -0.21),
  ('O=S(=O)(Nc1ccc(CCNC[C@H](O)c2cccnc2)cc1)c1ccc(-n2ncc(-c3ccc(F)c(F)c3)n2)cc1', 'log10(IC50)', 0.11),
  ('COc1ccc(-c2cnn(-c3ccc(S(=O)(=O)Nc4ccc(CCNC[C@H](O)c5cccnc5)cc4)cc3)n2)cc1F', 'log10(IC50)', 0.40);

---

target_of_assay: Beta-3 adrenergic receptor (Homo sapiens, UniProt P13945)
experiment_description: Tested for Beta3 adrenergic receptor agonist activity by its ability to stimulate adenylyl cyclase activation as % of the maximal stimulation with isoproterenol
Assay type: functional
Sequence (P13945 whole entry, looked up): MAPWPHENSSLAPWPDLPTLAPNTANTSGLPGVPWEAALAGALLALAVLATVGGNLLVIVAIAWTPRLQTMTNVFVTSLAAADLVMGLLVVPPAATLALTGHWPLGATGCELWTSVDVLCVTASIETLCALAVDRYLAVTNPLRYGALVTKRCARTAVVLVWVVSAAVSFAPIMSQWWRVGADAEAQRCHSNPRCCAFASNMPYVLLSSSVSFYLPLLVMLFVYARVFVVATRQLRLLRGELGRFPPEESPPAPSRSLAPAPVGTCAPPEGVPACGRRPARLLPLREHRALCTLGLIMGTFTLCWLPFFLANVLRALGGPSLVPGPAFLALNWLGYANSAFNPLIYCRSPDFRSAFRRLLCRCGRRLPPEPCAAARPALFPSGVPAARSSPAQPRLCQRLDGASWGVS
In this section we review reported Activation values for a set of compounds.
parameter_measured: Activation (%)

INSERT INTO measurements (molecule_smiles, parameter_measured, unit_name, observed_measurement) VALUES
  ('O=S(=O)(Nc1ccc(CCNC[C@H](O)c2cccnc2)cc1)c1ccc(-n2ncc(-c3ccc(F)c(F)c3)n2)cc1', 'Activation', '%', 82),
  ('O=S(=O)(Nc1ccc(CCNC[C@H](O)c2cccnc2)cc1)c1ccc(-n2ncc(Cc3ccc(OC(F)(F)F)cc3)n2)cc1', 'Activation', '%', 91),
  ('O=S(=O)(Nc1ccc(CCNC[C@H](O)c2cccnc2)cc1)c1ccc(-n2ncc(-c3ccc(OC(F)(F)F)cc3)n2)cc1', 'Activation', '%', 84),
  ('O=S(=O)(Nc1ccc(CCNC[C@H](O)c2cccnc2)cc1)c1ccc(-n2ncc(-c3ccc(C(F)(F)F)cc3)n2)cc1', 'Activation', '%', 90),
  ('O=S(=O)(Nc1ccc(CCNC[C@H](O)c2cccnc2)cc1)c1ccc(-n2ncc(Cc3ccc(F)c(F)c3)n2)cc1', 'Activation', '%', 86),
  ('O=S(=O)(Nc1ccc(CCNC[C@H](O)c2cccnc2)cc1)c1ccc(-n2ncc(COc3ccc(C(F)(F)F)cc3)n2)cc1', 'Activation', '%', 72),
  ('O=S(=O)(Nc1ccc(CCNC[C@H](O)c2cccnc2)cc1)c1ccc(-n2ncc(COc3ccc(OC(F)(F)F)cc3)n2)cc1', 'Activation', '%', 75),
  ('O=S(=O)(Nc1ccc(CCNC[C@H](O)c2cccnc2)cc1)c1ccc(-n2ncc(Cc3cccc(F)c3)n2)cc1', 'Activation', '%', 87),
  ('COc1ccc(-c2cnn(-c3ccc(S(=O)(=O)Nc4ccc(CCNC[C@H](O)c5cccnc5)cc4)cc3)n2)cc1F', 'Activation', '%', 80),
  ('O=S(=O)(Nc1ccc(CCNC[C@H](O)c2cccnc2)cc1)c1ccc(-n2ncc(Cc3c(F)cccc3F)n2)cc1', 'Activation', '%', 84),
  ('O=S(=O)(Nc1ccc(CCNC[C@H](O)c2cccnc2)cc1)c1ccc(-n2ncc(Cc3ccc(C(F)(F)F)cc3)n2)cc1', 'Activation', '%', 85),
  ('O=S(=O)(Nc1ccc(CCNC[C@H](O)c2cccnc2)cc1)c1ccc(-n2ncc(Cc3ccc(F)cc3)n2)cc1', 'Activation', '%', 75),
  ('O=S(=O)(Nc1ccc(CCNC[C@H](O)c2cccnc2)cc1)c1ccc(-n2ncc(Cc3c(F)cc(F)cc3F)n2)cc1', 'Activation', '%', 83),
  ('O=S(=O)(Nc1ccc(CCNC[C@H](O)c2cccnc2)cc1)c1ccc(-n2ncc(-c3ccc(F)cc3)n2)cc1', 'Activation', '%', 91),
  ('O=S(=O)(Nc1ccc(CCNC[C@H](O)c2cccnc2)cc1)c1ccc(-n2ncc(COc3ccc(F)c(F)c3)n2)cc1', 'Activation', '%', 63),
  ('O=S(=O)(Nc1ccc(CCNC[C@H](O)c2cccnc2)cc1)c1ccc(-n2ncc(-c3cccc(F)c3)n2)cc1', 'Activation', '%', 89);

---

In this section we review reported half-life values for a set of molecules.
experiment_description: The half life was determined
Format: ADME, organism-based, Canis lupus familiaris
condition_set: dog, in vivo
parameter_measured: half-life (h)

INSERT INTO results (molecule_smiles, observed_measurement) VALUES
  ('O=S(=O)(Nc1ccc(CCNC[C@H](O)c2cccnc2)cc1)c1ccc(-n2ncc(-c3ccc(C(F)(F)F)cc3)n2)cc1', 15),
  ('O=S(=O)(Nc1ccc(CCNC[C@H](O)c2cccnc2)cc1)c1ccc(-n2ncc(Cc3ccc(F)c(F)c3)n2)cc1', 4);

---

target_of_assay: Beta-3 adrenergic receptor (Homo sapiens, UniProt P13945)
experiment_description: Tested in vitro for its ability to stimulate increase in cAMP in CHO cells expressing the cloned human beta-3 adrenergic receptor
Sequence (P13945 whole entry): as the sequence (P13945 whole entry, looked up) above
pEC50: −log10 of the molar value.
Binary call on pEC50: rule met from 8 upward, rule not met beneath that.

INSERT INTO results (molecule, label) VALUES
  ('COc1ccc(-c2cnn(-c3ccc(S(=O)(=O)Nc4ccc(CCNC[C@H](O)c5cccnc5)cc4)cc3)n2)cc1F', 'rule not met'),
  ('O=S(=O)(Nc1ccc(CCNC[C@H](O)c2cccnc2)cc1)c1ccc(-n2ncc(Cc3ccc(C(F)(F)F)cc3)n2)cc1', 'rule met'),
  ('O=S(=O)(Nc1ccc(CCNC[C@H](O)c2cccnc2)cc1)c1ccc(-n2ncc(C(O)c3ccc(F)cc3)n2)cc1 (stereo partly drawn)', 'rule met'),
  ('O=S(=O)(Nc1ccc(CCNC[C@H](O)c2cccnc2)cc1)c1ccc(-n2ncc(-c3cccc(F)c3)n2)cc1', 'rule not met');

---

target_of_assay: Beta-3 adrenergic receptor (Homo sapiens, UniProt P13945)
experiment_description: Tested in vitro for its ability to stimulate increase in cAMP in CHO cells expressing the cloned human beta-3 adrenergic receptor
Format: functional, cell-based
Assign labels as follows, please: 1.0 for EC50 below 10 nM; 0.0 for EC50 equal to or exceeding 10 nM.

INSERT INTO assay_data (molecule_smiles, target_of_assay, label) VALUES
  ('O=S(=O)(Nc1ccc(CCNC[C@H](O)c2cccnc2)cc1)c1ccc(-n2ncc(Cc3c(F)cccc3F)n2)cc1', 'Beta-3 adrenergic receptor (Homo sapiens, UniProt P13945)', 0.0),
  ('O=S(=O)(Nc1ccc(CCNC[C@H](O)c2cccnc2)cc1)c1ccc(-n2ncc(-c3ccc(F)cc3)n2)cc1', 'Beta-3 adrenergic receptor (Homo sapiens, UniProt P13945)', 0.0),
  ('O=S(=O)(Nc1ccc(CCNC[C@H](O)c2cccnc2)cc1)c1ccc(-n2ncc(COc3ccc(OC(F)(F)F)cc3)n2)cc1', 'Beta-3 adrenergic receptor (Homo sapiens, UniProt P13945)', 0.0),
  ('O=S(=O)(Nc1ccc(CCNC[C@H](O)c2cccnc2)cc1)c1ccc(-n2ncc(-c3ccc(OC(F)(F)F)cc3)n2)cc1', 'Beta-3 adrenergic receptor (Homo sapiens, UniProt P13945)', 0.0),
  ('O=S(=O)(Nc1ccc(CCNC[C@H](O)c2cccnc2)cc1)c1ccc(-n2ncc(Cc3c(F)cc(F)cc3F)n2)cc1', 'Beta-3 adrenergic receptor (Homo sapiens, UniProt P13945)', 0.0),
  ('O=S(=O)(Nc1ccc(CCNC[C@H](O)c2cccnc2)cc1)c1ccc(-n2ncc(-c3ccc(C(F)(F)F)cc3)n2)cc1', 'Beta-3 adrenergic receptor (Homo sapiens, UniProt P13945)', 0.0),
  ('O=C(c1ccc(F)cc1)c1cnn(-c2ccc(S(=O)(=O)Nc3ccc(CCNC[C@H](O)c4cccnc4)cc3)cc2)n1', 'Beta-3 adrenergic receptor (Homo sapiens, UniProt P13945)', 1.0),
  ('O=S(=O)(Nc1ccc(CCNC[C@H](O)c2cccnc2)cc1)c1ccc(-n2ncc(-c3ccc(F)c(F)c3)n2)cc1', 'Beta-3 adrenergic receptor (Homo sapiens, UniProt P13945)', 0.0),
  ('O=S(=O)(Nc1ccc(CCNC[C@H](O)c2cccnc2)cc1)c1ccc(-n2ncc(Cc3ccc(OC(F)(F)F)cc3)n2)cc1', 'Beta-3 adrenergic receptor (Homo sapiens, UniProt P13945)', 1.0);
